// provenance: ChEMBL document CHEMBL4513216

System: Plasmodium berghei
Assay: Screen against P. berghei liver stage (PbLuc), transformed with Luciferase, at 10uM
Format: functional, HepG2
Settings: tested at 10 uM
About 8,600 (12%) of roughly 69,000 compounds showed an effect of 50% or more. Only a selection was taken, and strong results are over-represented in it overall.
metric name: INHIBITION

- molecule: "CNC(=O)[C@@H]1C[C@@H]2CCN(Cc3ccoc3)C[C@H]2O1"
  recorded measurement: "30.3%"
- molecule: "O=C(c1cccs1)N1CCC2(C1)c1ccccc1S(=O)(=O)N2CC1CC1 (stereo not given)"
  recorded measurement: "51.2%"
- molecule: "O=C(NCC1CC1)[C@H]1C[C@@H]2CCN(Cc3ccc4c(c3)OCO4)C[C@@H]2O1"
  recorded measurement: "30.4%"
- molecule: "CC(C)NC(=O)[C@@H]1C[C@@H]2CCN(Cc3ccoc3)C[C@H]2O1"
  recorded measurement: "53.9%"
- molecule: "CC(C)c1nnc(CN2CCCC(c3cc(C(N)=O)[nH]n3)C2)o1 (stereo not given)"
  recorded measurement: "33.7%"
- molecule: "CCc1ccc(-c2c(C)c(-c3cnn(C)c3)nc(N)c2C#N)o1"
  recorded measurement: "-7.7%"
- molecule: "O=C(NCc1ccccn1)[C@@]12CCO[C@@H]1CCN(c1ncccn1)C2"
  recorded measurement: "41.2%"
- molecule: "CCc1c(C)nc2n(c1=O)CC(C(=O)Nc1ncccc1C)CS2 (stereo not given)"
  recorded measurement: "-0.621%"
- molecule: "CCCn1cc(S(=O)(=O)N[C@H]2CN(CC(N)=O)C[C@@H]2C2CC2)cn1"
  recorded measurement: "37.7%"
- molecule: "CC1CN(CCOc2ccccc2C#N)CCN1Cc1nccn1C (stereo not given)"
  recorded measurement: "14.1%"
- molecule: "CCC(CC)(CNC(=O)NC1CCCC1(C)C)S(C)(=O)=O (stereo not given)"
  recorded measurement: "2.49%"
- molecule: "Cc1ccc(NC2CCN(C(=O)c3c(C)nn(C)c3Cl)CC2)nn1"
  recorded measurement: "1.45%"
- molecule: "O=C(O)c1cc(-c2cncnc2)cc(S(=O)(=O)N2CCCCCC2)c1"
  recorded measurement: "-8%"
- molecule: "CN(CC(=O)N1CCN(c2cnccn2)CC1)c1ccc(Cl)cn1"
  recorded measurement: "-1.38%"
- molecule: "COCCNC(=O)[C@H]1C[C@@H]2CCN(Cc3ccoc3)C[C@H]2O1"
  recorded measurement: "30.1%"
- molecule: "O=C(NC1CC1)[C@H]1C[C@@H]2CCN(Cc3ccc4c(c3)OCO4)C[C@@H]2O1"
  recorded measurement: "61.1%"
- molecule: "CN1CCC(N(Cc2ccncc2)C(=O)COCC2CCCCO2)CC1 (stereo not given)"
  recorded measurement: "17.2%"
- molecule: "CNC(=O)[C@H]1C[C@@H]2CCN(Cc3ccc4c(c3)OCO4)C[C@@H]2O1"
  recorded measurement: "-9.18%"
- molecule: "CNC(=O)[C@@H]1C[C@H](n2cc(-c3ccc(CN4CC=CC4)cc3)nn2)CN1"
  recorded measurement: "41.2%"
- molecule: "O=C(NCc1ccco1)[C@@]12CCO[C@@H]1CCN(Cc1ccccn1)C2"
  recorded measurement: "-34.7%"
- molecule: "Cc1cc(-c2c(C)c(-c3cnn(C)c3)nc(N)c2C#N)oc1C"
  recorded measurement: "31.6%"
- molecule: "COCCNC(=O)CN1CCC(N2CCN(C)C2=O)CC1"
  recorded measurement: "48.2%"
- molecule: "O=c1c2c[nH]c(N3CCCC3)nc-2cn1C1CCS(=O)(=O)C1 (stereo not given)"
  recorded measurement: "42.1%"
- molecule: "O=C(NCc1ccccn1)[C@@]12CCO[C@@H]1CCN(Cc1ccccn1)C2"
  recorded measurement: "51.2%"
- molecule: "O=C(NCCc1nncn1C1CC1)C1SCCc2ccccc21 (stereo not given)"
  recorded measurement: "-4.13%"
- molecule: "Fc1ccc(C2CN(c3ncnc4[nH]ncc34)CCO2)cc1 (stereo not given)"
  recorded measurement: "40.8%"
- molecule: "CC(C)NC(=O)[C@@]12CCO[C@@H]1CCN(Cc1ccco1)C2"
  recorded measurement: "60.3%"
- molecule: "CCCn1cc(S(=O)(=O)N[C@H]2CN(CCO)C[C@@H]2C2CC2)cn1"
  recorded measurement: "92.1%"
- molecule: "CCCn1cc(S(=O)(=O)N[C@H]2CN(C(C)=O)C[C@@H]2C2CC2)cn1"
  recorded measurement: "24.2%"
- molecule: "COCCC(=O)N1CCC(c2ccc3c(NC(C)C)n[nH]c3n2)C1 (stereo not given)"
  recorded measurement: "-36.4%"

====

A collection of compounds and their measured INHIBITION
Test system: Plasmodium berghei
Test: Screen against P. berghei liver stage (PbLuc), transformed with Luciferase, at 10uM
Assay type: functional, HepG2
Details: tested at 10 uM
The whole screen tested about 69,000 compounds, of which about 8,600 (12%) showed an effect of 50% or more. The list comes from a sample in which strong results are over-represented; it also holds close analogues and randomly drawn compounds.

- compound: "Cc1c(I)cccc1C(=O)NCc1ncc[nH]1"
  unit: "%"
  INHIBITION: 57
- compound: "Cc1c(I)cccc1C(=O)NCC1(CO)CC1"
  unit: "%"
  INHIBITION: -4.86
- compound: "CCc1ccc(CCC(=O)NCc2nnc[nH]2)cc1"
  unit: "%"
  INHIBITION: 24.5
- compound: "CCN(Cc1ccc2c(c1)OCCO2)C(=O)NC(C)Cn1cccn1 (stereo unspecified)"
  unit: "%"
  INHIBITION: 45.7
- compound: "Cc1c(I)cccc1C(=O)NCc1nnc[nH]1"
  unit: "%"
  INHIBITION: 51.5
- compound: "Cc1cccc(C(C(=O)NC(C)(C)CN2CCCC2)N(C)C)c1 (stereo unspecified)"
  unit: "%"
  INHIBITION: -13.2

====

Tested on: Plasmodium berghei
Experiment: Screen against P. berghei liver stage (PbLuc), transformed with Luciferase, at 10uM
Assay type: functional, HepG2
Conditions: tested at 10 uM
In all, about 69,000 compounds went through this assay and about 8,600 (12%) showed an effect of 50% or more. The sample holds strong results, similar compounds and a random draw of the others, so the mix is not that of the screen.
A collection of compounds and their measured INHIBITION

- compound: "O=C1CC2(CCCC2)CC(=O)N1CCn1cnnc1"
  unit: "%"
  INHIBITION: -28.9
- compound: "Cc1nccn1CCN1C(=O)CC2(CCCC2)CC1=O"
  unit: "%"
  INHIBITION: 56
- compound: "O=C(c1ccnc(C2CCNCC2)c1)N1CCCC1"
  unit: "%"
  INHIBITION: 7.43
- compound: "Cc1ccc(N2CC[C@@H]3CN(Cc4cccc(C)n4)C[C@@H]3C2)nn1"
  unit: "%"
  INHIBITION: -2.41
- compound: "Cc1nncn1CCN1C(=O)CC2(CCCC2)CC1=O"
  unit: "%"
  INHIBITION: -23.3
- compound: "COc1ccc(-c2ccc(C(=O)N3CCOCC3CC(N)=O)o2)cc1 (stereo not drawn)"
  unit: "%"
  INHIBITION: -71.5
- compound: "O=C(c1ccsc1)N1CCc2onc(COc3ccccn3)c2C1"
  unit: "%"
  INHIBITION: 45.8
- compound: "Cc1cccc(CN2C[C@@H]3CN(Cc4ccoc4)CCO[C@@H]3C2)n1"
  unit: "%"
  INHIBITION: 23.3

====

Tested on: Plasmodium berghei
Assay: Screen against P. berghei liver stage (PbLuc), transformed with Luciferase, at 10uM
Assay type: functional, HepG2
Conditions: tested at 10 uM
Screen size: about 69,000 compounds; about 8,600 (12%) showed an effect of 50% or more. The sample as a whole holds a higher share of strong results than the screen did.
A collection of molecules and their measured INHIBITION

- molecule: "CCc1nc(C2CCCN2Cc2nc3ccccc3o2)no1 (centres undefined)"
  INHIBITION / %: 20.2
- molecule: "Cn1cc(CN2C[C@@H]3COC[C@@H](C(=O)N4CCCCO4)[C@@H]3C2)cn1"
  INHIBITION / %: 39.8
- molecule: "Cn1cc(CN2CCC(c3cc(CCO)[nH]n3)C2)cn1 (centres undefined)"
  INHIBITION / %: 39.8
- molecule: "CC(=O)N1CCC(C(=O)c2cc(C)cnc2N)CC1"
  INHIBITION / %: 39.2

====

Tested on: Plasmodium berghei
Experiment: Screen against P. berghei liver stage (PbLuc), transformed with Luciferase, at 10uM
Format: functional, HepG2
Conditions: tested at 10 uM
About 8,600 (12%) of roughly 69,000 compounds showed an effect of 50% or more. Many of the other results were omitted from the sample, so strong results are more common in it than they were.
A collection of compounds and their measured INHIBITION

- compound: "COCC(NC(=O)c1ccco1)c1cccc(C(F)(F)F)c1 (stereo unspecified)"
  INHIBITION: "-31.6%"
- compound: "COCCOCCNC(=O)N1CCc2c(F)ccc(F)c2C1"
  INHIBITION: "5.38%"
- compound: "Cc1ccc(Oc2cc(F)ccc2O[C@@H]2CCC[C@@H](N)[C@H]2O)cc1"
  INHIBITION: "94.1%"
- compound: "COc1c(CNCCNC(=O)c2ccccc2F)c(C)nn1C"
  INHIBITION: "-7.31%"
- compound: "O=C(c1cccc(CNCC=Cc2ccccc2)c1)N1CCCC1"
  INHIBITION: "58.5%"
- compound: "CC(C)N1CCC(C(=O)N2CCc3c(nc(CC4CC4)[nH]c3=O)C2)CC1"
  INHIBITION: "53.8%"
- compound: "CCn1cc(NC(=O)C2CCN(CC(=O)NCC(C)C)CC2)cn1"
  INHIBITION: "37.4%"
- compound: "CN(C)C(=O)c1cnc2n1CCN(Cc1ccncc1)C2"
  INHIBITION: "24.1%"
- compound: "Cc1nn(C)cc1S(=O)(=O)NCC(C)Cn1cc(Cl)cn1 (stereo unspecified)"
  INHIBITION: "18.4%"
- compound: "Cc1cc(C)n(CCCNC(=O)C2CCCO2)n1 (stereo unspecified)"
  INHIBITION: "6.09%"
- compound: "CC(C)N1CCCC(C(=O)N2CCc3c(nc(CC4CC4)[nH]c3=O)C2)C1 (stereo unspecified)"
  INHIBITION: "26.9%"
- compound: "Cc1noc(C)c1C(=O)N[C@@H]1CCC[C@@H](Oc2ccccc2)[C@@H]1O"
  INHIBITION: "17.39%"
- compound: "Cc1nnnn1CCC(=O)N1CCC2(CCC(=O)N(CC3CC3)C2)CC1"
  INHIBITION: "8.38%"
- compound: "CN[C@@H]1CCC[C@@H](Oc2ccccc2Oc2ccc(C)cc2)[C@@H]1O"
  INHIBITION: "60.2%"
- compound: "N[C@H]1CN(C(=O)c2ccccc2Oc2ccccc2)C[C@@H]1C1CC1"
  INHIBITION: "31.2%"
- compound: "Cc1ccc(NC(=O)CNC(C)CN2CCCCC2)c(F)c1 (stereo unspecified)"
  INHIBITION: "63.8%"
